Assay: mtPTP inhibition via calcium retention, dose response, biochemical, dry powder samples, uHTS hits, Calcium Green-5N (AID 743360)
Conditions: isolated mitochondria, Ca retention capacity
Active and inactive are the calls of the source.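 How the source made its calls: active means calcium retention capacity relative to untreated control above about 1.1 ratio (limit read from the data); inactive means the rest.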
Select the matching outcome among active, inactive

Known results for compounds:
* COc1c(Cl)cccc1NC(=O)c1cc(-c2cccc(O)c2)on1 | active
* CN1CCN(CCc2ccc(NS(=O)(=O)c3cc(Cl)cc(Cl)c3)cc2)CC1 | inactive
* O=C(Nc1ccc(N2CCCCC2)cc1)c1cccc(OCc2ccccc2)c1 | inactive
* Cc1cc(NC(=O)c2cc(-c3ccc(F)cc3)on2)no1 | inactive
* CN1CCN(c2ccc(Cl)cc2NC(=O)/C=C/c2cccc(F)c2)CC1 | active

Inquiry: What outcome does the record of this test show for CN1CCN(CCc2ccc(NS(=O)(=O)c3cccc(Cl)c3)cc2)CC1 ?
Reply text: inactive

---

Test: mtPTP inhibition via calcium retention, dose response, biochemical, dry powder samples, uHTS hits, Calcium Green-5N (AID 743360)
Conditions: isolated mitochondria, Ca retention capacity
Activity calls are given as the source filed them.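 How the source made its calls: active means calcium retention capacity relative to untreated control above about 1.1 ratio (limit read from the data); inactive means the rest.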
Select the matching outcome among True for active, False for inactive

• O=C(Nc1ccc(F)cc1F)c1cc(-c2ccccc2)on1 = False
• O=C(Nc1ccc(CN2CCCCC2)cc1)c1cccc(Cl)c1 = True
• COc1ccc(Cl)cc1C(=O)Nc1ccc(CCN2CCOCC2)cc1 = True
• CN1CCN(CCc2ccc(NC(=O)c3cccc(OCc4ccccc4)c3)cc2)CC1 = True
• O=C(Nc1ccccc1C(F)(F)F)c1cc(-c2ccccc2)on1 = False

Inquiry: What outcome does the record of this test show for CN1CCN(Cc2ccc(NS(=O)(=O)c3cc(Cl)cc(Cl)c3)cc2)CC1 ?
Reply text: False

Inquiry: What outcome does the record of this test show for C[C@@H]1CCC[C@H](C)N1CCCC(=O)c1ccc(Br)cc1 ?
Reply text: False

Inquiry: What outcome does the record of this test show for CC(C)c1cc(C(=O)Nc2ccc(F)cc2F)no1 ?
Reply text: False

Inquiry: What outcome does the record of this test show for COc1cccc(-c2cc(C(=O)Nc3cc(Cl)ccc3C)no2)c1 ?
Reply text: False

Inquiry: What outcome does the record of this test show for Cc1c(Cl)cccc1NC(=O)c1cc(-c2cccc(O)c2)on1 ?
Reply text: True

Inquiry: What outcome does the record of this test show for CCN(C(=O)c1cc(Cl)ccc1OC)c1ccccc1 ?
Reply text: False

---

Assay: mtPTP inhibition via calcium retention, dose response, biochemical, dry powder samples, uHTS hits, Calcium Green-5N (AID 743360)
Conditions: isolated mitochondria, Ca retention capacity
The source made the active and inactive calls.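 Rule for the calls: active = calcium retention capacity relative to untreated control above about 1.1 ratio (limit read from the data); inactive = the rest.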
Select the matching outcome among active, inactive

Known results for compounds:
- O=C(Nc1ccccc1OCc1ccccc1)c1cc(-c2cccc(O)c2)on1: active
- COc1ccc(/C=C/C(=O)Nc2cccc(Cl)c2)cc1O: active
- CCc1ccccc1NC(=O)c1cc(-c2ccccc2)on1: inactive
- O=C(Nc1ccc(CN2CCCCC2)cc1)c1cccc(OCc2ccccc2)c1: active

Inquiry: What outcome does the record of this test show for COc1ccccc1C(=O)Nc1ccc(CN2CCCCC2)cc1 ?
Reply text: inactive

---

Test: mtPTP inhibition via calcium retention, dose response, biochemical, dry powder samples, uHTS hits, Calcium Green-5N (AID 743360)
Details: isolated mitochondria, Ca retention capacity
Active and inactive are the calls of the source.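 The calls were made as follows: active = calcium retention capacity relative to untreated control above about 1.1 ratio (limit read from the data); inactive = the rest.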
Select the matching outcome among active, inactive

Known results for compounds:
• CC1(C)CCN(CCCC(=O)c2ccc(Br)cc2)CC1 = active
• COc1ccc(Cl)cc1C(=O)Nc1ccc(CCN2CCN(C(=O)OC(C)(C)C)CC2)cc1 = active
• O=C(Nc1cccc(Cl)c1)c1cc(-c2ccccc2)on1 = inactive
• O=C(Nc1cccc(F)c1)c1cc(-c2cccc(O)c2)on1 = active
• CN1CCN(c2ccc(NC(=O)c3ccc(OCc4ccccc4)cc3)cc2)CC1 = inactive
• O=C(Nc1cc(Cl)ccc1F)c1cc(-c2cccc(O)c2)on1 = active
• CN1CCN(c2ccccc2NC(=O)c2ccc(OCc3ccccc3)cc2)CC1 = active
• O=S(=O)(Nc1ccc(CCN2CCCCC2)cc1)c1ccc(F)c(Cl)c1 = inactive

Inquiry: What outcome does the record of this test show for COc1ccc(Cl)cc1C(=O)Nc1ccc(CN2CCN(C)CC2)cc1 ?
Reply text: active

Inquiry: What outcome does the record of this test show for Cc1cc(NC(=O)c2ccc(-n3cnnc3)cc2)no1 ?
Reply text: inactive

Inquiry: What outcome does the record of this test show for O=C(Nc1ccc(Br)cc1)c1cc(C2CC2)on1 ?
Reply text: inactive

Inquiry: What outcome does the record of this test show for COc1ccc(Cl)c(C(=O)Nc2ccc(CCN3CCN(C(=O)OC(C)(C)C)CC3)cc2)c1 ?
Reply text: active

Source: PubChem BioAssay AID743360
